Examples of molecules with documented decrease in SVR (systemic vascular resistance) from baseline follow.
# Test system: pulmonary and systemic circulation of healthy female pigs
# experiment: Systemic (central intravenous) nucleotide infusion in pigs, hemodynamic response
# Type: in vivo
# condition.description: p<0.05
quantity: decrease in SVR (systemic vascular resistance) from baseline

{"columns": ["molecule", "test.value"],
 "data": [
  ["Nc1ncnc2c1ncn2[C@@H]1O[C@H](CO)[C@@H](O)[C@H]1O", "59.0±3.0%"],
  ["Nc1ncnc2c1ncn2[C@@H]1O[C@H](COP(=O)(O)OP(=O)(O)O)[C@@H](O)[C@H]1O", "49.5±2.0%"],
  ["Nc1ncnc2c1ncn2[C@@H]1O[C@H](COP(=O)(O)OP(=O)(O)OP(=O)(O)O)[C@@H](O)[C@H]1O", "61.6±2.1%"],
  ["O=c1ccn([C@@H]2O[C@H](COP(=O)(O)OP(=O)(O)OP(=O)(O)O)C(O)[C@@H]2O)c(=O)[nH]1 (stereo partly shown) [UTP, Uridine 5-triphosphate]", "62.9±2.6%"]
]}

* * *

# experiment: Kinetics of UTP in the circulation
# Format: in vivo
# condition.description: in vivo; in the circulation; read-out: terminal half-life (converted)

{"columns": ["molecule", "half-life, min"],
 "data": [
  ["O=c1ccn([C@@H]2O[C@H](COP(=O)(O)OP(=O)(O)OP(=O)(O)O)C(O)[C@@H]2O)c(=O)[nH]1 (stereo partly shown) [UTP, Uridine 5-triphosphate]", 0.333]
]}

* * *

# experiment: Kinetics of UTP in the circulation
# Format: in vivo
# condition.description: blood (the circulation); in the circulation; read-out: terminal half-life (converted)
quantity: half-life

{"columns": ["compound", "test.value"],
 "data": [
  ["O=c1ccn([C@@H]2O[C@H](COP(=O)(O)OP(=O)(O)OP(=O)(O)O)C(O)[C@@H]2O)c(=O)[nH]1 (stereo partly shown) [UTP, Uridine 5-triphosphate]", "~20 s"]
]}
